Data provenance is the supplement of paper PMC10126150.

Test system: ATP;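 note: ATP exposure 15 min at 22 °C before imaging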
Test: switch fluorescence ratio, 500 uM ATP over buffer (Cy3 cluster intensity, sum of 5 cycles each) (fold (ratio)); higher = stronger signal-on switching upon ATP binding; sequences stand for … in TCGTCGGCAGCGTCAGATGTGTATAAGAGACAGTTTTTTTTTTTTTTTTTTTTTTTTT…TC
Settings: aptamer strand: ATP DNA aptamer (quencher-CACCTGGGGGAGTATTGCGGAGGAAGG + anchor), 100 nM annealed; ATP concentration: 500 uM
MEASUREMENT_LABEL: switch fluorescence ratio
API note: the answer field is a bare number with no unit suffix.

Use the examples below as a reference point.
CTTGTAATTT | 1.02
AGATAGGGGT | 1.02
TGTTGATACT | 1.06
CGGTTTCAAG | 0.972
GGAGTACCTG | 1.06

Input GTGTGCGGGG . Output switch fluorescence ratio: 1.06

Reported switch fluorescence ratio of TTGGGTGCCT : 0.999

So, CTTAGGGTAG ? Its switch fluorescence ratio was 1.01

So for GGTATTAGGG , the logged switch fluorescence ratio turned out to be 1

###

Test system: ATP;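 note: ATP exposure 15 min at 22 °C before imaging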
Test: switch fluorescence ratio, 500 uM ATP over buffer (Cy3 cluster intensity, sum of 5 cycles each) (fold (ratio)); higher = stronger signal-on switching upon ATP binding; sequences stand for … in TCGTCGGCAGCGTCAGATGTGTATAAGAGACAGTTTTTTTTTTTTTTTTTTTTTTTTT…TC
Details: aptamer strand: ATP DNA aptamer (quencher-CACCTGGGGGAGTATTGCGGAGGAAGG + anchor), 100 nM annealed; ATP concentration: 500 uM
Rule: switch fluorescence ratio of 1 or more gives rule met; anything lower gives rule not met.

Example cases with answers are listed next.
ATAGTCAGAT | rule not met
CCTTTGTATT | rule met
AGCCCCGGCT | rule not met

Now for a further sequence.
Hi team, for TTGCGTTGCG , is the recorded switch fluorescence ratio at or above 1?
rule not met

###

Test system: ATP;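 note: ATP exposure 15 min at 22 °C before imaging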
Test: switch fluorescence ratio, 500 uM ATP over buffer (Cy3 cluster intensity, sum of 5 cycles each) (fold (ratio)); higher = stronger signal-on switching upon ATP binding; sequences stand for … in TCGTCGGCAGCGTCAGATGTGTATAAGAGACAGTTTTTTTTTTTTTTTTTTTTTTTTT…TC
Conditions: aptamer strand: ATP DNA aptamer (quencher-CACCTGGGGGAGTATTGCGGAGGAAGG + anchor), 100 nM annealed; ATP concentration: 500 uM
Collected switch fluorescence ratio values appear next to each entry.
Response field accepts a number only; no unit should be typed.

In the examples that follow, each entry is paired with its recorded switch fluorescence ratio.
GACCTATTTT | 1.02
GTTGTTTGAT | 0.997

Lab note: measured switch fluorescence ratio of TAAGGAAAAG was 1.01

Summary for this sequence, GCCGTAGCTG : switch fluorescence ratio is 1.02

Note to self: switch fluorescence ratio recorded for ATCTTAAATA was 0.992

Entry GCTGAGAGTC — recorded switch fluorescence ratio = 0.992

GET /value?item= GTGGTAGGTT &field=switch fluorescence ratio returns 0.981

Just so you know, measured switch fluorescence ratio for CAACAACTTC came out at 1.01

The sequence GGGACGATGG showed switch fluorescence ratio equal to 0.986

Value of measured switch fluorescence ratio for the entry CGTTAGGGCA : 0.979

In plain terms, GGGTGGTGGA has a documented switch fluorescence ratio of 1.01

Memo: AGGGTTAAAT , reported switch fluorescence ratio: 1

Per the record, TCAATGTTTT has switch fluorescence ratio of 0.985

Looking up TTCGGATAAT , I see its switch fluorescence ratio listed as 0.98

Value of switch fluorescence ratio reported for the sequence GCTCTAAGGG is 1.01

Form: sequence = ATACGAGTTA ; switch fluorescence ratio = 1.02

Entry TCAGGGGTCT — recorded switch fluorescence ratio = 0.994

Looking up TTTTACTTGT , I found its switch fluorescence ratio recorded as 1.02

CGTTAGTATT has a reported switch fluorescence ratio of 0.994

// recorded switch fluorescence ratio for GGGCGTACGG : 1.06

Briefly, switch fluorescence ratio measured for GATCTACTTG : 0.995
